- target_system: NAD-dependent protein deacetylase sirtuin-1 (Homo sapiens)
- Sequence (Q96EB6 whole entry): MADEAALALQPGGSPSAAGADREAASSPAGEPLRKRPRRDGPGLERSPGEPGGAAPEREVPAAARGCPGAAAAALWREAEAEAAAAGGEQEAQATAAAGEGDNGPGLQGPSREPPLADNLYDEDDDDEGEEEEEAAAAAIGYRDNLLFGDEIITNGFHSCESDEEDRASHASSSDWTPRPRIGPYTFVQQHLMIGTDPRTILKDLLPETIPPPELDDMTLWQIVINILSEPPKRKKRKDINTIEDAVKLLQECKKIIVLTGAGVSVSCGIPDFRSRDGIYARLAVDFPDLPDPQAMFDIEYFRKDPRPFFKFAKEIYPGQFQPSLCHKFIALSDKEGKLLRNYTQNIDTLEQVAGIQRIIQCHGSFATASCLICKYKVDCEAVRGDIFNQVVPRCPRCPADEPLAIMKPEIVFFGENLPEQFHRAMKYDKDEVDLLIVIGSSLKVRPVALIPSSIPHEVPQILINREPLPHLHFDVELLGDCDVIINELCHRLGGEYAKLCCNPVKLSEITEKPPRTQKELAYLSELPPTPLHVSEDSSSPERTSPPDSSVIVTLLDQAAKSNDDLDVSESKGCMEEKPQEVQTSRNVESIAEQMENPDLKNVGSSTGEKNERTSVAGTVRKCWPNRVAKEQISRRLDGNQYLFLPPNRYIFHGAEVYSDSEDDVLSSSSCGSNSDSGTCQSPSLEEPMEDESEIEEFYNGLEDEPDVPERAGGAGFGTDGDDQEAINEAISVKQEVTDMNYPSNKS
- protocol: Inhibition of recombinant human SIRT1 assessed as deacetylation activity using fluorescent substrate in presence of NAD+ by fluorescence analysis
endpoint_label: IC50

Q: # get_value(readout= IC50, system= NAD-dependent protein deacetylase sirtuin-1 (Homo sapiens)) for O=C(/C=C/c1ccc(O)c(O)c1)NC(Cc1c[nH]c2ccccc12)C(=O)O (stereo unspecified)
Result: 34 µM
